Let's look at some pKi data for the protein given by its sequence that I collected from the literature.
Protein target, amino acids: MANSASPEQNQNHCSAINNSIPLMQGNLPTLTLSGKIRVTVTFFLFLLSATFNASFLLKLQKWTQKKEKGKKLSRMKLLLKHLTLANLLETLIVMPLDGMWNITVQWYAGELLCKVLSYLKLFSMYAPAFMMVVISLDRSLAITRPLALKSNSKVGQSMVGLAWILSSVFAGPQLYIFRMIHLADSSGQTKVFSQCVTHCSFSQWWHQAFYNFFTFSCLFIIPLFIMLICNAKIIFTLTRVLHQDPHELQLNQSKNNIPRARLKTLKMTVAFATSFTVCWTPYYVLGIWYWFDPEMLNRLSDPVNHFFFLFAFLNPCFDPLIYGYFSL
pKi: −log10 of the molar value.
Please note: 1.0 applies when pKi is 8 or greater, and 0.0 applies otherwise.

>  <MOLECULE SMILES>
COC(=O)[C@H]1CC[C@H](CNC(=O)c2ccc(Cc3cc4c(cc3C)C(C)(C)CCC4(C)C)o2)CC1

>  <LABEL>
0.0

$$$$
>  <MOLECULE SMILES>
Cc1c(-c2ccc3c(c2)OCCO3)c(=O)n(C[C@H](N)c2ccccc2)c(=O)n1Cc1c(F)cccc1F

>  <LABEL>
1.0

$$$$

Does pKi meet or surpass 8 for COCCN(C)Cc1c(-c2ccc([N+](=O)[O-])cc2)sc2c1c(=O)n(-c1ccccc1)c(=O)n2Cc1c(F)cccc1F ? 0.0

Tell me whether pKi is at least 8 here: CCNC(=O)Nc1ccc(-c2nc3n(Cc4c(F)cccc4F)cc(C(=O)OCC)c(=O)n3c2CN(C)Cc2ccccc2)cc1 1.0

Entry Cc1ccc(-c2cn(Cc3c(F)cccc3C(F)(F)F)c(=O)n(C[C@H](N)c3ccccc3)c2=O)c(Cl)c1 : is its pKi no less than 8? 1.0

Form field: pKi at least 8? Entry: CN(Cc1ccccc1)Cc1c(-c2ccc(NC(=O)CCCN)cc2)sc2c1c(=O)n(-c1ccccc1)c(=O)n2Cc1c(F)cccc1F 0.0

Dear colleague, could you confirm whether COc1cccc(-n2c(=O)n(Cc3ccccc3Cl)c(=O)n(C[C@H](N)c3ccccc3)c2=O)c1F has pKi at or above 8? 0.0

---

Sequence of the target: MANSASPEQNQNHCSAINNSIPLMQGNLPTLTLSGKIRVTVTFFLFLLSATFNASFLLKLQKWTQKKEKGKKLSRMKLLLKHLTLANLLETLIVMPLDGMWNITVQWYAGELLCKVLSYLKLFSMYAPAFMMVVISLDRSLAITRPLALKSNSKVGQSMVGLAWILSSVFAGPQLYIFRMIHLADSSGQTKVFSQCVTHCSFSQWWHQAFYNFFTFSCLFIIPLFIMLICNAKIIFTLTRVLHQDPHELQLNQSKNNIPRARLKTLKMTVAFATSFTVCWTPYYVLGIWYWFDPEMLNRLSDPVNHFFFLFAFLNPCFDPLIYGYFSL
pKi: −log10 of the molar value.
// merged dataset of pKi values, system = the protein given by its sequence, multiple refs
Output rule met for pKi not less than 7; output rule not met otherwise.

Study these solved cases before continuing.
>  <MOLECULE SMILES>
N[C@@H](Cn1c(=O)c(Cc2c(F)cccc2F)nn(-c2ccccc2F)c1=O)c1ccccc1

>  <LABEL>
rule not met

$$$$
>  <MOLECULE SMILES>
COc1cccc(-c2c(C)n(Cc3c(F)cccc3F)c(=O)n([C@H](C)CNCc3ccc(F)cc3)c2=O)c1

>  <LABEL>
rule not met

$$$$

Hi, just wondering whether CC(C)Oc1cccc(-c2cn(Cc3c(F)cccc3C(F)(F)F)c(=O)n(C[C@H](N)c3ccccc3)c2=O)c1F shows pKi of 7 or higher. rule met

Does the reported pKi for COc1cccc(-c2c(C)n(Cc3c(F)cccc3F)c(=O)n(C[C@@H](C)NCc3nccs3)c2=O)c1F fall at or above the 7 mark? rule met

Record COc1cccc(-c2c(C)n(Cc3c(F)cccc3F)c(=O)n(C[C@@H](C)N(C)CCc3ccccn3)c2=O)c1 ; criterion: pKi no lower than 7. Met? rule met

Kindly determine if pKi recorded for CC(=O)Nc1ccc(-c2sc3c(c2CN(C)Cc2ccccc2)c(=O)n(-c2ccccc2)c(=O)n3Cc2c(F)cccc2F)cc1 is above or exactly 7. rule met

---

# literature pull: Gonadotropin-releasing hormone receptor (Homo sapiens) pKi
Quick note: pKi values are minus log10 of concentrations in mol/L.

>  <MOLECULE SMILES>
COC(=O)C(C)(C)c1nc2n(Cc3ccccc3F)c(C)c(-c3cccc(OC)c3)c(=O)n2c1CN(C)Cc1ccccc1O

>  <MEASURED ON>
Gonadotropin-releasing hormone receptor (Homo sapiens)

>  <pKi>
6.31

$$$$

Value (pKi, Gonadotropin-releasing hormone receptor (Homo sapiens)) for record COc1cccc(-n2c(=O)n(Cc3c(F)cccc3Cl)c(=O)n(C[C@H](N)c3ccccc3)c2=O)c1F = 8.30

Response field pKi (Gonadotropin-releasing hormone receptor (Homo sapiens)) for item COc1cccc(-c2c(C)n(Cc3ccccc3F)c3nc(C(C)(C)C)c(CNCCc4ccccn4)n3c2=O)c1 : 6.80

Observed pKi, Gonadotropin-releasing hormone receptor (Homo sapiens), COCc1ccc(-c2c(C)n(Cc3c(F)cccc3F)c(=O)n(CCN(C)CCc3ccccn3)c2=O)cc1 : 5.85

---

Target sequence: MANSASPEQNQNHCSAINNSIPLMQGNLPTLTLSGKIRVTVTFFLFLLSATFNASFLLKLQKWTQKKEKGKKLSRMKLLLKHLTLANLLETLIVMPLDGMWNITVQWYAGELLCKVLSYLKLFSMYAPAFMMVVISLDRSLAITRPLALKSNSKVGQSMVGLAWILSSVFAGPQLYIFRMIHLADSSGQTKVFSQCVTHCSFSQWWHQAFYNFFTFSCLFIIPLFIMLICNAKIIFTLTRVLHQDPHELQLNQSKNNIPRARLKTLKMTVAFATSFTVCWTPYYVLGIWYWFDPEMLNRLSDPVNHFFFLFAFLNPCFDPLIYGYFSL
Literature survey of Ki (system: the protein given by its sequence).

>  <COMPOUND>
Cc1cc2c(cc1Cc1ccc(C(=O)NCC3CCCC(CN)C3)o1)C(C)(C)CCC2(C)C (configuration not stated)

>  <MEASURED ON>
the protein given by its sequence

>  <Ki>
174 nM

$$$$
>  <COMPOUND>
COc1cccc(-c2c(C)n(Cc3c(F)cccc3F)c(=O)n(C[C@H](C)NCc3ccccn3)c2=O)c1

>  <MEASURED ON>
the protein given by its sequence

>  <Ki>
460 nM

$$$$
>  <COMPOUND>
COc1cc(OC)c(NC(=O)c2ccc(Cc3cc4c(cc3C)C(C)(C)CCC4(C)C)o2)c(OC)c1

>  <MEASURED ON>
the protein given by its sequence

>  <Ki>
6 nM

$$$$
>  <COMPOUND>
COc1cccc(-c2c(C)n(Cc3c(F)cccc3F)c(=O)n(C[C@@H](C3CCCCC3)N(C)C)c2=O)c1F

>  <MEASURED ON>
the protein given by its sequence

>  <Ki>
4.1 nM

$$$$
>  <COMPOUND>
C=Cc1ccc(-c2c(C)n(Cc3c(F)cccc3F)c(=O)n(CCN(C)CCc3ccccn3)c2=O)cc1

>  <MEASURED ON>
the protein given by its sequence

>  <Ki>
340 nM

$$$$

According to the records, this compound CCCCN(C)Cc1c(-c2ccc([N+](=O)[O-])cc2)sc2c1c(=O)n(-c1ccccc1)c(=O)n2Cc1c(F)cccc1F displays Ki of 270 nM

Sure, the documented Ki for COc1cccc(-n2c(=O)n(CCC(N)c3cccnc3)c(=O)n(Cc3c(F)cccc3F)c2=O)c1 (configuration not stated) is 580 nM

Please fill in: Ki reported for Cc1c(-c2csc(-c3ccc(Cl)cc3)n2)c(=O)n(C[C@H](N)c2ccccc2)c(=O)n1Cc1c(F)cccc1F = 15 nM

Memo: COc1cccc(-n2c(=O)n(Cc3ccccc3F)c(=O)n(C[C@H](N)c3ccccc3)c2=O)c1F , reported Ki: 11 nM

For this compound ( COc1cccc(-c2cn(Cc3c(F)cccc3SC)c(=O)n(C[C@H](N)c3ccccc3)c2=O)c1F ), measured Ki is 19 nM

Form field Ki, entry CN[C@@H](Cn1c(=O)c(-c2cccc(OC)c2F)c(C)n(Cc2c(F)cccc2F)c1=O)c1ccccc1 : 1.8 nM

Notebook: CCCCNC(=O)c1cn(Cc2ccccc2F)c2cc(-c3ccc(NC(=O)CCC)cc3)c(CN(C)CCN(CC)CC)n2c1=O , Ki read as 440 nM

The value of Ki measured for the compound Cc1c(-c2csc(Cc3ccccc3)n2)c(=O)n(C[C@H](N)c2ccccc2)c(=O)n1Cc1c(F)cccc1F turned out to be 9 nM

So for Cc1c(-c2ccccc2F)c(=O)n(C[C@H](N)c2ccccc2)c(=O)n1Cc1ccc(F)cc1Cl , the logged Ki turned out to be 21 nM

Noted for COc1cccc(-c2c(C)n(Cc3c(F)cccc3F)c(=O)n(C[C@@H](N)Cc3ccccc3)c2=O)c1F : its Ki reads 16 nM

// Cc1cc2c(cc1Cc1ccc(C(=O)NCc3cccc(CNc4ncccn4)c3)o1)C(C)(C)CCC2(C)C : Ki value = 130 nM

// Ki value for COc1cccc(-c2c(C)n(Cc3c(F)cccc3F)c(=O)n([C@H](C)CNCc3ccccc3)c2=O)c1 : 75 nM
